Every entry's value here was drawn from patent US8802597B2.

# System: common ragweed (Ambrosia elatior)
# Protocol notes: Test C pre/postemergence
# Type: in vivo
# Condition summary: Ambrosia artemisiifolia, post-emergence, Postemergence, 250 g ai/ha; scale 0 to 100; read-out: Plant response rating, Ragweed

Structure string: CCOC(=O)c1nc(C2CC2)nc(NN)c1Br
Tested system: common ragweed (Ambrosia elatior)
pest or weed control at 250 g/ha, %: 40

Structure string: COC(=O)c1nc(C2CC2)nc(N)c1Cl
Tested system: common ragweed (Ambrosia elatior)
pest or weed control at 250 g/ha, %: 100

Structure string: CCOC(=O)c1nc(C2CC2)nc(N)c1Br
Tested system: common ragweed (Ambrosia elatior)
pest or weed control at 250 g/ha, %: 100

Structure string: CNc1nc(C2CC2)nc(C(=O)OC)c1Br
Tested system: common ragweed (Ambrosia elatior)
pest or weed control at 250 g/ha, %: 95

Structure string: Nc1nc(C2CC2)nc(C(=O)O)c1Br
Tested system: common ragweed (Ambrosia elatior)
pest or weed control at 250 g/ha, %: 95

Structure string: Nc1nc(C2CC2)nc(C(=O)OCc2ccccc2)c1Cl
Tested system: common ragweed (Ambrosia elatior)
pest or weed control at 250 g/ha, %: 100

Structure string: CCOC(=O)c1nc(C2CC2)nc(N)c1F
Tested system: common ragweed (Ambrosia elatior)
pest or weed control at 250 g/ha, %: 90
